- Measured target: TPO-R (Homo sapiens, UniProt P40238)
- Construct: made in house
- Sequence (P40238 26-491 limits assumed): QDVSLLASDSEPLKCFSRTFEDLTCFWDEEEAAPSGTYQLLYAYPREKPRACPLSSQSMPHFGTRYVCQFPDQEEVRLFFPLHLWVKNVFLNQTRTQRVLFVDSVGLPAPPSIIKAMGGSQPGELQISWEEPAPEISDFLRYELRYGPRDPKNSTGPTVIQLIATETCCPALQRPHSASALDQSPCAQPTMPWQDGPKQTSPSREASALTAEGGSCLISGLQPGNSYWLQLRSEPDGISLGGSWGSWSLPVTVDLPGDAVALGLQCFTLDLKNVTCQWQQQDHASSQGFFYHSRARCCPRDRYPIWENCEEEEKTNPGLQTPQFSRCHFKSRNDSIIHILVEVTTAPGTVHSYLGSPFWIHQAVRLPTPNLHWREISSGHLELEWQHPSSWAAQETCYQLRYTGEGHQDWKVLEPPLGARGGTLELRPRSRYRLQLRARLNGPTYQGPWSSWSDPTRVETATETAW
- Protocol summary: Competition binding assay (equilibrium binding ELISA, MBP-TPO156 tracer) on immobilized TPO-R
- Measurement parameters: Table 4, cyclized compounds; read-out: IC50
Where a SMILES comes first, the peptide text is derived from it.
Reported metric: IC50

molecule="CC[C@H](C)[C@@H]1NC(=O)[C@H](Cc2c[nH]c3ccccc23)NC(=O)[C@H](CCC(=O)O)NC(=O)[C@H](CCCNC(=N)N)NC(=O)[C@H](CC(C)C)NC(=O)[C@H]([C@@H](C)O)NC(=O)[C@@H]2CCCN2C(=O)CNC(=O)[C@H](CC(=O)O)NC(=O)[C@H](C)NC(=O)[C@@H](N)C(C)(C)SSC[C@@H](C(N)=O)NC(=O)[C@H](Cc2ccccc2)NC(=O)[C@H](CO)NC1=O (HELM PEPTIDE1{[Pen].A.D.G.P.T.L.R.E.W.I.S.F.C.[am]}$PEPTIDE1,PEPTIDE1,1:R3-14:R3$$$V2.0)" measured_target="TPO-R (Homo sapiens, UniProt P40238)" assay_result="≤ 500 nM"

---

- Measured target: human TPO-R (transfected Ba/F3 cells) (Homo sapiens, UniProt P40238)
- Construct: Murine IL-3 dependent Ba/F3 cells were transfected with full length human TPO-R; expressed in transfected cells; host or cells: murine Ba/F3 cells
- Sequence (P40238 26-635): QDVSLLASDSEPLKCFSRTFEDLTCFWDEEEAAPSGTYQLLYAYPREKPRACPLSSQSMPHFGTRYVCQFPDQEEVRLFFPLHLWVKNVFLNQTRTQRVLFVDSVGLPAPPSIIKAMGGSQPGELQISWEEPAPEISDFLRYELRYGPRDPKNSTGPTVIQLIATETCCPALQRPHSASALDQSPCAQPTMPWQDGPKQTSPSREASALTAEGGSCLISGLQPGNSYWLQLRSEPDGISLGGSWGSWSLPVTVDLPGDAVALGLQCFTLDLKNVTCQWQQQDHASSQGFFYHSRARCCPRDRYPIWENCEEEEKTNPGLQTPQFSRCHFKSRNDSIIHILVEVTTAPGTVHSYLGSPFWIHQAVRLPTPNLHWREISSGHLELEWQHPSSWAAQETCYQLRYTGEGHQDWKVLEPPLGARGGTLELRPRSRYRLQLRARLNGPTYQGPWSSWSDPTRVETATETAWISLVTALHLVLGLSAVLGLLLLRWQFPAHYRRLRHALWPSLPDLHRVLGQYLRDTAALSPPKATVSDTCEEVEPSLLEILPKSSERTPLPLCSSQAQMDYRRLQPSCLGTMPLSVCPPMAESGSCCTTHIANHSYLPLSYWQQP
- Protocol summary: Thrombopoietin dependent cell proliferation assay (MTT), TPO-R transfected Ba/F3 cells
- Type: cell-based
- Measurement parameters: Table 4, cyclized compounds; read-out: EC50 (nM) Proliferation
Where a SMILES comes first, the peptide text is derived from it.
List of EC50 values.
Reported metric: EC50

compound="CC[C@H](C)[C@@H]1NC(=O)[C@H](Cc2c[nH]c3ccccc23)NC(=O)[C@H](CCC(=O)O)NC(=O)[C@H](CCCNC(=N)N)NC(=O)[C@H](CC(C)C)NC(=O)[C@H]([C@@H](C)O)NC(=O)[C@@H]2CCCN2C(=O)CNC(=O)[C@H](CC(=O)O)NC(=O)[C@H](C)NC(=O)CC[C@@H](C(N)=O)NC(=O)[C@H](Cc2ccccc2)NC(=O)[C@H](CO)NC1=O (HELM PEPTIDE1{A.D.G.P.T.L.R.E.W.I.S.F.E.[am]}$PEPTIDE1,PEPTIDE1,1:R1-13:R3$$$V2.0)" assay_result="< 200000 nM"
compound="CC[C@H](C)[C@@H]1NC(=O)[C@H](Cc2c[nH]c3ccccc23)NC(=O)[C@H](CCC(=O)O)NC(=O)[C@H](CCCNC(=N)N)NC(=O)[C@H](CC(C)C)NC(=O)[C@H]([C@@H](C)O)NC(=O)[C@@H]2CCCN2C(=O)CNC(=O)[C@H](CC(=O)O)NC(=O)[C@H](C)NC(=O)[C@@H](N)CCC(=O)NCCCC[C@@H](C(N)=O)NC(=O)[C@H](Cc2ccccc2)NC(=O)[C@H](CO)NC1=O (HELM PEPTIDE1{E.A.D.G.P.T.L.R.E.W.I.S.F.K.[am]}$PEPTIDE1,PEPTIDE1,1:R3-14:R3$$$V2.0)" assay_result="< 200000 nM"

---

List of EC50 values.
- Measured target: human TPO-R (transfected Ba/F3 cells) (Homo sapiens)
- Construct: Murine IL-3 dependent Ba/F3 cells were transfected with full length human TPO-R; expressed in transfected cells; host or cells: murine Ba/F3 cells
- Protocol summary: Thrombopoietin dependent cell proliferation assay (MTT), TPO-R transfected Ba/F3 cells
- Format: cell-based
- Measurement parameters: Table 4, cyclized compounds; read-out: EC50 (nM) Proliferation
Where a SMILES comes first, the peptide text is derived from it.
Reported metric: EC50

compound="CC[C@H](C)[C@@H]1NC(=O)[C@H](Cc2c[nH]c3ccccc23)NC(=O)[C@H](CCC(=O)O)NC(=O)[C@H](CCCNC(=N)N)NC(=O)[C@H](CC(C)C)NC(=O)[C@H]([C@@H](C)O)NC(=O)[C@@H]2CCCN2C(=O)CNC(=O)[C@H](CC(=O)O)NC(=O)[C@H](C)NC(=O)[C@@H](N)CSSC[C@H](C(N)=O)NC(=O)[C@H](Cc2ccccc2)NC(=O)[C@H](CO)NC1=O (HELM PEPTIDE1{C.A.D.G.P.T.L.R.E.W.I.S.F.[dC].[am]}$PEPTIDE1,PEPTIDE1,1:R3-14:R3$$$V2.0)" assay_result="< 200000 nM"
compound="CC[C@H](C)[C@@H]1NC(=O)[C@H](Cc2c[nH]c3ccccc23)NC(=O)[C@H](CCC(=O)O)NC(=O)[C@H](CCCNC(=N)N)NC(=O)[C@H](CC(C)C)NC(=O)[C@H]([C@@H](C)O)NC(=O)[C@@H]2CCCN2C(=O)CNC(=O)[C@H](CC(=O)O)NC(=O)[C@H](C)NC(=O)C[S+]([O-])C[C@@H](C(N)=O)NC(=O)[C@H](Cc2ccccc2)NC(=O)[C@H](CO)NC1=O (some centres unmarked) (HELM PEPTIDE1{A.D.G.P.T.L.R.E.W.I.S.F.[O=C([C@H](C[S+]([O-])CC(=O)[*:3])N[*:1])[*:2]].[am]}$PEPTIDE1,PEPTIDE1,1:R1-13:R3$$$V2.0)" assay_result="< 200000 nM"

---

List of EC50 values.
- Measured target: UniProt P40238
- Protocol summary: Microphysiometer assay: rate of acidification of extracellular medium on TPO receptor stimulation
- Format: cell-based
- Measurement parameters: Table 4, cyclized compounds; microphysiometer; read-out: EC50 (nM) Microonys
Where a SMILES comes first, the peptide text is derived from it.
Reported metric: EC50

compound="CC[C@H](C)[C@@H]1NC(=O)[C@H](Cc2c[nH]c3ccccc23)NC(=O)[C@H](CCC(=O)O)NC(=O)[C@H](CCCNC(=N)N)NC(=O)[C@H](CC(C)C)NC(=O)[C@H]([C@@H](C)O)NC(=O)[C@@H]2CCCN2C(=O)CNC(=O)[C@H](CC(=O)O)NC(=O)[C@H](C)NC(=O)[C@@H](N)CCCCNC(=O)CC[C@@H](C(N)=O)NC(=O)[C@H](Cc2ccccc2)NC(=O)[C@H](CO)NC1=O (HELM PEPTIDE1{K.A.D.G.P.T.L.R.E.W.I.S.F.E.[am]}$PEPTIDE1,PEPTIDE1,1:R3-14:R3$$$V2.0)" measured_target="UniProt P40238" reported_metric=EC50 assay_result="< 200000 nM"
compound="CC[C@H](C)[C@@H]1NC(=O)[C@H](Cc2c[nH]c3ccccc23)NC(=O)[C@H](CCC(=O)O)NC(=O)[C@H](CCCNC(=N)N)NC(=O)[C@H](CC(C)C)NC(=O)[C@H]([C@@H](C)O)NC(=O)[C@@H]2CCCN2C(=O)CNC(=O)[C@H](CC(=O)O)NC(=O)[C@H](C)NC(=O)[C@@H](N)CCC(=O)NCCCC[C@@H](C(N)=O)NC(=O)[C@H](Cc2ccccc2)NC(=O)[C@H](CO)NC1=O (HELM PEPTIDE1{E.A.D.G.P.T.L.R.E.W.I.S.F.K.[am]}$PEPTIDE1,PEPTIDE1,1:R3-14:R3$$$V2.0)" measured_target="UniProt P40238" reported_metric=EC50 assay_result="< 200000 nM"
compound="CC[C@H](C)[C@@H]1NC(=O)[C@H](Cc2c[nH]c3ccccc23)NC(=O)[C@H](CCC(=O)O)NC(=O)[C@H](CCCNC(=N)N)NC(=O)[C@H](CC(C)C)NC(=O)[C@H]([C@@H](C)O)NC(=O)[C@@H]2CCCN2C(=O)CNC(=O)[C@H](CC(=O)O)NC(=O)[C@H](C)NC(=O)CSC[C@@H](C(N)=O)NC(=O)[C@H](Cc2ccccc2)NC(=O)[C@H](CO)NC1=O (HELM PEPTIDE1{[O=C(C[*:3])[*:2]].A.D.G.P.T.L.R.E.W.I.S.F.C.[am]}$PEPTIDE1,PEPTIDE1,1:R3-14:R3$$$V2.0)" measured_target="UniProt P40238" reported_metric=EC50 assay_result="< 500 nM"
compound="CC[C@H](C)[C@@H]1NC(=O)[C@H](Cc2c[nH]c3ccccc23)NC(=O)[C@H](CCC(=O)O)NC(=O)[C@H](CCCNC(=N)N)NC(=O)[C@H](CC(C)C)NC(=O)[C@H]([C@@H](C)O)NC(=O)[C@@H]2CCCN2C(=O)CNC(=O)[C@H](CC(=O)O)NC(=O)[C@H](C)NC(=O)CSC(C)(C)[C@@H](C(N)=O)NC(=O)[C@H](Cc2ccccc2)NC(=O)[C@H](CO)NC1=O (HELM PEPTIDE1{[O=C(C[*:3])[*:2]].A.D.G.P.T.L.R.E.W.I.S.F.[Pen].[am]}$PEPTIDE1,PEPTIDE1,1:R3-14:R3$$$V2.0)" measured_target="UniProt P40238" reported_metric=EC50 assay_result="< 200000 nM"
